- procedure details: NCI Yeast Anticancer Drug Screen. Data for the mlh1 rad18 strain (AID 175)
- measurement conditions: S. cerevisiae mlh1 rad18 strain growth inhibition; at 50.0 µM; stronger effect = higher value
- Experimental: Growth inhibition of yeast strains with defined genetic alterations is measured as a screen for potential anti-cancer activity. Selected strains with alterations in DNA damage repair or cell cycle control were exposed to compounds and growth inhibition was measured relative to vehicle treated controls. The strain used in this assay is mlh1 rad18
Compounds without any hit were thinned out: in the full panel of roughly 79,000, 15% have a hit.
measurement kind: growth inhibition (%)
Only the number, expressed in %, is required.

The examples below pair each entry with its known result.
molecule	units text	growth inhibition
CON(C)S(=O)(=O)c1ccc(Cl)cc1	%	-6.2
Cn1cc(S(C)=O)c(=O)c2ccccc21 (stereo unspecified)	%	-2.35
CC(=O)Nc1ccc(/C=C2\CCOC2=O)cc1[N+](=O)[O-]	%	3.6
CCCCc1c2c([n+]([O-])c3c1CCCC3)CCCC2	%	20.1
CSc1nc(=O)[nH]c2c1[nH]c(=O)n2-c1ccccc1	%	-9.05
Cn1c2ccccc2c(=S)c2cc(NC(=O)CCCCC(=O)Nc3ccc4c(c3)c(=S)c3ccccc3n4C)ccc21	%	23.9
COc1ccc(OC)c2cc3c(cc12)C(=O)C(C)=C(C)C3=O	%	7.7
CCCC(C)C(=O)OCCOC (stereo unspecified)	%	0

Consider the molecule c1ccc(CSC2(SCc3ccccc3)CCCC2)cc1 . State its measured growth inhibition. -4.45

Consider the molecule N=C(N)SCc1cccc(-c2nc3ccccc3c(=O)o2)c1 . State its measured growth inhibition. 16.9

Consider the molecule Cc1cc2c(C(C)C)c(O)c(O)c(C=Nc3cccc(O)c3)c2c(O)c1-c1c(C)cc2c(C(C)C)c(O)c(O)c(C=Nc3cccc(O)c3)c2c1O . State its measured growth inhibition. 58.3

====

growth inhibition overview
- procedure details: NCI Yeast Anticancer Drug Screen. Data for the bub3 strain (AID 167)
- measurement conditions: S. cerevisiae bub3 mutant strain, at 50.0 µM, stronger effect = higher value
The panel holds about 79,000 compounds, 15% with a hit somewhere; the sample as a whole holds those more often.
Only the number, expressed in %, is required.

molecule	growth inhibition / %
CCCOC(=O)CCCCCC1CCCCC1	-8.1
CC(=O)Oc1ccccc1OC(=S)N(C)C	15.8

Consider the molecule OC1CCC2CCCC2C1 (centres undefined) . State its measured growth inhibition. -8.6

Consider the molecule COc1ccc(/C=C2\CCN(C(C)=O)C2=O)cc1 . State its measured growth inhibition. 3.25

Consider the molecule CC(C)CCCCCCCCCCCCC(=O)NCC(=O)NC1C(C)OC(Nc2ncnc3c2ncn3C)C(O)C1O (centres undefined) . State its measured growth inhibition. 4.05

====

growth inhibition overview
- procedure details: NCI Yeast Anticancer Drug Screen. Data for the rad50 strain (AID 155);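 further: 0% = growth of vehicle-only cultures of the same strain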
- measurement conditions: S. cerevisiae rad50 strain growth inhibition; at 50.0 µM; stronger effect = higher value
Compounds without any hit were thinned out: in the full panel of roughly 79,000, 15% have a hit.
Only the number, expressed in %, is required.

The examples below pair each entry with its known result.
compound	measurement kind	numeric readout
O=C1CSC(=S)N1/N=C/c1ccc([N+](=O)[O-])s1	growth inhibition	97.8
O=c1[nH]c(=S)[nH]c2ncn(C3OC(CO)C(O)C3O)c12 (stereo unspecified)	growth inhibition	-13.4
O=S(=O)(Nc1ccccc1Cl)c1ccc(F)cc1	growth inhibition	-5.85
N#CC12CCC(O)C(CC1)C2=O (stereo unspecified)	growth inhibition	20.2
O=S(=O)(/N=C1C=C/C(=N\S(=O)(=O)c2ccccc2)C2C/1C2(c1ccccc1)c1ccccc1)c1ccccc1 (stereo unspecified)	growth inhibition	39.7

Now let's try a different one.
Consider the compound CN(C)CC(CCC(=O)c1ccccc1)C(=O)c1ccccc1 (stereo unspecified) . State its measured growth inhibition. 8.05
